# assay target: central CCK-B receptors (guinea pig cortical membrane) (Cavia porcellus, UniProt H0VZC5)
# Construct: Cerebral cortices of white male guinea pigs were therefore used; from tissue; host or cells: guinea pig cerebral cortex membranes
# Sequence (H0VZC5 1-426): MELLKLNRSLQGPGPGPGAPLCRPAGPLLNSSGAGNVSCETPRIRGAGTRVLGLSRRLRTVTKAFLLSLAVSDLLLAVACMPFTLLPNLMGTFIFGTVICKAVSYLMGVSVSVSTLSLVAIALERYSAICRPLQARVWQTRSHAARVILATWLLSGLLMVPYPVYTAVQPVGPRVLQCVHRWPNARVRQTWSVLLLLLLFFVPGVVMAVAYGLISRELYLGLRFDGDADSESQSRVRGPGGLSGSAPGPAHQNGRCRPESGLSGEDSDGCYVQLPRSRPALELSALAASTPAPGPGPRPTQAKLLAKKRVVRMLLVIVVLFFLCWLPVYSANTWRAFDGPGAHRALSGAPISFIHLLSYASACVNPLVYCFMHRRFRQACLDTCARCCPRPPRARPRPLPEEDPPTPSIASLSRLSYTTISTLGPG
# experiment description: Inhibition of binding of (3-H)[N-methyl-N-leucine]CCK-8 to guinea pig cortical membranes (anti-CCK-B)
# conditions: IC50, inhibition of binding of (3-H)[N-methyl-N-leucine]CCK-8 to the guinea pig cortical membrane, 150 minutes at 25° C.
For each entry below, report its pIC50 value.
Give bare numbers, as −log10 of the molar value.

| compound | pIC50 |
| --- | --- |
| O=C(O)CC[C@@H](NC(=O)c1cc(Cl)cc(Cl)c1)C(=O)N1CCC2(CCCC2)CC1 [CR 2194, reference compound] | 5.62 |

Hi, could you look up pIC50 for each item in my list?
1. CCCCCN(CCCCC)C(=O)[C@@H](CCC(=O)O)NC(=O)c1ccc(Cl)c(Cl)c1 [R-lorglumide, reference compound]
2. CCCCCN(CCCCC)C(=O)[C@@H](CCC(=O)NCCN1CCOCC1)NC(=O)c1ccc2ccccc2c1 [Compound 61]
3. CCCCCN(CCCCC)C(=O)C(CCC(=O)NCCN1CCOCC1)NC(=O)c1ccc(C)c(C)c1 (racemic) [Compound 44]
4. CN1CCN(C(=O)CC[C@@H](NC(=O)c2cccc(Cl)c2)C(=O)N2CCC3(CCCC3)CC2)CC1 [Compound 7]

1. 5.04
2. 5.54
3. 4.18
4. 5.19

* * *

# System: guinea-pig ureters
# experiment description: Antispastic activity in vitro: spontaneous motility of guinea-pig ureters
# conditions: Cavia porcellus; force of the contractions, five minutes contact, 37° C.; read-out: IC50 (force), inhibition of the spontaneous motility of guinea-pig ureters in vitro
Quick rule for you: IC50 under 20 µg/mL gets y, anything else gets n.

is_below(IC50, 20 µg/mL) for CCCCCN(CCCCC)C(=O)C(CCC(=O)NCCN1CCCCC1)NC(=O)c1ccc(C)c(C)c1 (centres unmarked) ?
y

is_below(IC50, 20 µg/mL) for CCCCCN(CCCCC)C(=O)C(CCC(=O)NCCN1CCOCC1)NC(=O)c1ccc(C#N)cc1 (centres unmarked) ?
y

is_below(IC50, 20 µg/mL) for CCCCN(CCCC)C(=O)C(CCC(=O)NCC1CCCN1CC)NC(=O)c1ccc(C)c(C)c1 (centres unmarked) ?
n

is_below(IC50, 20 µg/mL) for CCCCCN(CCCCC)C(=O)C(CCC(=O)NCCN1CCOCC1)NC(=O)c1ccc(OC)c(OC)c1 (centres unmarked) ?
y

is_below(IC50, 20 µg/mL) for CCCCN(CCCC)C(=O)C(CCC(=O)NCCCN1CCOCC1)NC(=O)c1ccc(C)c(C)c1 (centres unmarked) ?
y

is_below(IC50, 20 µg/mL) for CCCCCN(CCCCC)C(=O)[C@H](CCC(=O)NCCN1CCOCC1)NC(=O)c1ccc(C)c(C)c1 ?
y

is_below(IC50, 20 µg/mL) for CCCCCN(CCCCC)C(=O)C(CCC(=O)NCCN1CCOCC1)NC(=O)c1ccc(C)c(C)c1 (racemic) ?
y

is_below(IC50, 20 µg/mL) for CCCCCN(CCCCC)C(=O)C(CCC(=O)NCCCN1CCN(Cc2ccccc2)CC1)NC(=O)c1ccc(C)c(C)c1 (centres unmarked) ?
n

* * *

# System: acid secretion induced by pentagastrin
# experiment description: Activity against gastric secretion stimulated with pentagastrin in the anaesthetized rat
# Type: in vivo
# conditions: iv; anaesthetized rat, pentagastrin 30 mcg/kg/h, I.V. bolus; read-out: Antagonistic activity (ID50) towards acid secretion induced by pentagastrin
endpoint label: log10 of ED50 (log10 of the value in mg/kg)
Recall that a logarithmic scale is used here: each number is log10 of ED50 in mg/kg.

Sample records with log10 of ED50:
| compound | log10 of ED50 |
| --- | --- |
| CN1CCN(C(=O)CC[C@@H](NC(=O)c2cc(Cl)cc(Cl)c2)C(=O)N2CCC3(CCCCC3)CC2)CC1 | 0.93 |
| CN1CCN(C(=O)CC[C@@H](NC(=O)c2cc(Cl)cc(Cl)c2)C(=O)N2CCC3(CCCC3)CC2)CC1 | 0.95 |
| CN1CCN(C(=O)CC[C@H](NC(=O)c2cc(Cl)cc(Cl)c2)C(=O)N2CCC3(CCCC3)CC2)CC1 | 1.39 |

Hi, could you look up log10 of ED50 for each item in my list?
1. O=C(O)CC[C@@H](NC(=O)c1cc(Cl)cc(Cl)c1)C(=O)N1CCC2(CCCC2)CC1 [CR 2194, reference compound]
2. CCC(C)(CC)CCNC(=O)C(CC(=O)NCCN1CCOCC1)NC(=O)c1cccc(Cl)c1 (stereo not drawn)
3. CCCN(CCC)C(=O)C(CCC(=O)O)NC(=O)c1ccccc1 (stereo not drawn) [proglumide, reference compound]
4. CN1CCN(C(=O)CC[C@@H](NC(=O)c2cccc(Cl)c2)C(=O)NCCC(C)(C)C)CC1
5. CN1CCN(C(=O)C[C@@H](NC(=O)c2cc(Cl)cc(Cl)c2)C(=O)N2CCC3(CCCC3)CC2)CC1

1. 1.04
2. 1.49
3. 2.70
4. 1.40
5. 1.28

Determine from records and report log10 of ED50 for O=C(CC[C@@H](NC(=O)c1cc(Cl)cc(Cl)c1)C(=O)N1CCC2(CCCC2)CC1)NCCN1CCOCC1
1.11

* * *

# Test system: guinea-pig ureters
# experiment description: Antispastic activity in vitro: spontaneous motility of guinea-pig ureters
# conditions: Cavia porcellus; force of the contractions, five minutes contact, 37° C.; read-out: IC50 (force), inhibition of the spontaneous motility of guinea-pig ureters in vitro
Quick rule for you: IC50 under 4 µg/mL gets YES, anything else gets NO.

| molecule | class |
| --- | --- |
| CCCCCN(CCCCC)C(=O)[C@@H](CCC(=O)NCCN1CCOCC1)NC(=O)c1ccc(C)c(C)c1 | NO |
| CCCCN(CCCC)C(=O)C(CCC(=O)NCCCN(C)C)NC(=O)c1ccc(C)c(C)c1 (stereo not drawn) | NO |
| CCCCN(CCCC)C(=O)C(CCC(=O)NCCN1CCOCC1)NC(=O)c1ccc(C)c(C)c1 (stereo not drawn) | NO |
| CCCCCN(CCCCC)C(=O)C(CCC(=O)NCCCN(C)C)NC(=O)c1ccc(C)c(C)c1 (stereo not drawn) | NO |

is_below(IC50, 4 µg/mL) for O=C(CC[C@@H](NC(=O)c1cc(Cl)cc(Cl)c1)C(=O)N1CCC2(CCCC2)CC1)NCCN1CCOCC1 ?
NO

is_below(IC50, 4 µg/mL) for CCCCCN(CCCCC)C(=O)C(CCC(=O)NCCN1CCOCC1)NC(=O)c1ccc(C(C)C)cc1 (stereo not drawn) ?
YES

* * *

# assay target: central CCK-B receptors (guinea pig cortical membrane) (Cavia porcellus)
# Construct: Cerebral cortices of white male guinea pigs were therefore used; from tissue; host or cells: guinea pig cerebral cortex membranes
# experiment description: Inhibition of binding of (3-H)[N-methyl-N-leucine]CCK-8 to guinea pig cortical membranes (anti-CCK-B)
# conditions: IC50, inhibition of binding of (3-H)[N-methyl-N-leucine]CCK-8 to the guinea pig cortical membrane, 150 minutes at 25° C.
Quick rule for you: IC50 under 10 µM gets Y, anything else gets N.

| compound | class |
| --- | --- |
| CN1CCN(C(=O)CC[C@H](NC(=O)c2cc(Cl)cc(Cl)c2)C(=O)N2CCC3(CCCC3)CC2)CC1 | N |

is_below(IC50, 10 µM) for CN1CCN(CCNC(=O)CC[C@@H](NC(=O)c2cc(Cl)cc(Cl)c2)C(=O)N2CCC3(CCCC3)CC2)CC1 ?
Y

is_below(IC50, 10 µM) for O=C(CC[C@@H](NC(=O)c1cc(Cl)cc(Cl)c1)C(=O)N1CCC2(CCCC2)CC1)NCCN1CCOCC1 ?
Y

is_below(IC50, 10 µM) for CCCCCN(CCCCC)C(=O)C(CCC(=O)NCCN1CCOCC1)NC(=O)c1ccc(C(C)C)cc1 (stereo not shown) ?
N

is_below(IC50, 10 µM) for CN(C)CCNC(=O)CC[C@@H](NC(=O)c1cc(Cl)cc(Cl)c1)C(=O)N1CCC2(CCCC2)CC1 ?
N

is_below(IC50, 10 µM) for CN1CCN(C(=O)CC[C@@H](NC(=O)c2cc(Cl)cc(Cl)c2)C(=O)N2CCC3(CCCC3)CC2)CC1 ?
Y

is_below(IC50, 10 µM) for CN1CCN(C(=O)CC[C@@H](NC(=O)c2cccc(Cl)c2)C(=O)NCCC(C)(C)C)CC1 ?
N
